Every entry's value here was drawn from ChEMBL document CHEMBL1817668.

Tested Target: UniProt:P30536
Sequence (P30536 whole entry): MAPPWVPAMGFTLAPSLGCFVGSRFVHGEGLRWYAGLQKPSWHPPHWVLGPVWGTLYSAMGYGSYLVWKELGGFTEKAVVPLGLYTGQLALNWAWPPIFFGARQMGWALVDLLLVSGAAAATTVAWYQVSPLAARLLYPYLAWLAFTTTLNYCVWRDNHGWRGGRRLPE
Endpoint Name: Ki (nM)
Answers are plain numbers, in nM.

Look up Ki for this compound: `COc1ccccc1CN(C(C)=O)c1cnc(F)cc1Oc1ccccc1` 1.19

----------
Tested Target: Translocator protein (Rattus norvegicus, UniProt P16257)
Sequence (P16257 whole entry, looked up): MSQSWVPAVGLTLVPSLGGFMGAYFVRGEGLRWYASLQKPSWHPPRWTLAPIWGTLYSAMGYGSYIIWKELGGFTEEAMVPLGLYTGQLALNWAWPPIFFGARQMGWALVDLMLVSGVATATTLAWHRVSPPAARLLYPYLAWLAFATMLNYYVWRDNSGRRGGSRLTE
Experimental Details: Displacement of [3H]PK11195 from TSPO in rat heart membrane homogenate
Assay type: cell membranes
Endpoint Name: Ki (nM)
Numbers only, in nM.

What does the data say about its Ki? Entry: `COc1ccccc1CN(C(C)=O)c1cnc(F)cc1Oc1ccccc1` 0.44

----------
Tested Target: Translocator protein (Rattus norvegicus)
Experimental Details: Displacement of [3H]PK11195 from TSPO in rat kidney mitochondrial fraction
Assay type: tissue-based
Endpoint Name: pKi
One number for each entry, as −log10 of the molar value.

Any idea what pKi was measured for `COc1ccccc1CN(C(C)=O)c1cnc(F)cc1Oc1ccccc1` ? 8.41
